Each recorded value in this set is attributed to paper PMC13486833.

molecular target: RAGE-Fc chimera protein (UniProt Q15109 23-342); assay: BLI; kinetics
Sequence (Q15109 23-342, change not shown): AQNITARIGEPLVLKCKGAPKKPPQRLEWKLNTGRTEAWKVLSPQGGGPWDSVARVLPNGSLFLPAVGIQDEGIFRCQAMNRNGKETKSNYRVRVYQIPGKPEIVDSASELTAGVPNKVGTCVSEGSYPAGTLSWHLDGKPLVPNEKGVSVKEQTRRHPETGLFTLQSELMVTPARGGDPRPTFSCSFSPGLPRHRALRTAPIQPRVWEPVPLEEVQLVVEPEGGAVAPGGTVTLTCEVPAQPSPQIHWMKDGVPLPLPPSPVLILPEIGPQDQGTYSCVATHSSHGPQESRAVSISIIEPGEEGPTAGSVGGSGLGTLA
In this section, each of the binders is paired with its reported pKd.
Value format note: pKd is -log10 of concentration (mol/L); just state the number.

Some solved entries appear below for comparison.
{"BINDER": "DS-HMGB1 1–164 (domain or fragment, disulfide bond between C22 and C44) GKGDPKKPRGKMSSYAFFVQTCREEHKKKHPDASVNFSEFSKKCSERWKTMSAKEKGKFEDMAKADKARYEREMKTYIPPKGETKKKFKDPNAPKRPPSAFFLFCSEYRPKIKGEHPGLSIGDVAKKLGEMWNNTAADDKQPYEKKAAKLKEKYEKDIAAYRAK", "pKd": 6.05}
{"BINDER": "dBB12L (FR-HMGB1 89–174::89–174) (other, fully reduced Cys105 (printed numbering) in both copies; printed n = entry n+1 (C22/C44/C105 = C23/C45/C106 in P09429); direct tandem fusion, with native flanks acting as the linker) KDPNAPKRPPSAFFLFCSEYRPKIKGEHPGLSIGDVAKKLGEMWNNTAADDKQPYEKKAAKLKEKYEKDIAAYRAKGKPDAAKKGVKDPNAPKRPPSAFFLFCSEYRPKIKGEHPGLSIGDVAKKLGEMWNNTAADDKQPYEKKAAKLKEKYEKDIAAYRAKGKPDAAKKGV", "pKd": 5.89}

Field request: pKd | item: DS-HMGB1 1–184 (domain or fragment, disulfide bond between C22 and C44) GKGDPKKPRGKMSSYAFFVQTCREEHKKKHPDASVNFSEFSKKCSERWKTMSAKEKGKFEDMAKADKARYEREMKTYIPPKGETKKKFKDPNAPKRPPSAFFLFCSEYRPKIKGEHPGLSIGDVAKKLGEMWNNTAADDKQPYEKKAAKLKEKYEKDIAAYRAKGKPDAAKKGVVKAEKSKKKK
6.70

Same again, this time with FR-HMGB1 1–214 (natural protein) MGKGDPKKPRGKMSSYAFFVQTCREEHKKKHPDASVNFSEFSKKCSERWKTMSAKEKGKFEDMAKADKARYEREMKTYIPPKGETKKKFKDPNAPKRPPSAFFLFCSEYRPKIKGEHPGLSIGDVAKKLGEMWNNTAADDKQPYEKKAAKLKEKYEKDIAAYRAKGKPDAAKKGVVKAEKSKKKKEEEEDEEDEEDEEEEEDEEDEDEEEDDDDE
6.10

Next entry: DS-HMGB1 1–214 (natural protein, disulfide bond between C22 and C44) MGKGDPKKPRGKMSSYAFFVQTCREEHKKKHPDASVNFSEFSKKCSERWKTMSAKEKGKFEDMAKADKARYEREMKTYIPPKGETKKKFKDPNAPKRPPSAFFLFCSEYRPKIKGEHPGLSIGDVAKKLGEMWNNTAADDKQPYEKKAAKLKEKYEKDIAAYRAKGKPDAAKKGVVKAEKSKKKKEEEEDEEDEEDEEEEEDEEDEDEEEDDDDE
6.70

Now try 3S-HMGB1 1–214 (natural protein) GKGDPKKPRGKMSSYAFFVQTSREEHKKKHPDASVNFSEFSKKSSERWKTMSAKEKGKFEDMAKADKARYEREMKTYIPPKGETKKKFKDPNAPKRPPSAFFLFSSEYRPKIKGEHPGLSIGDVAKKLGEMWNNTAADDKQPYEKKAAKLKEKYEKDIAAYRAKGKPDAAKKGVVKAEKSKKKKEEEEDEEDEEDEEEEEDEEDEDEEEDDDDE .
6.05

Request: DS Box A 1-88 (protein, intramolecular disulfide Cys22-Cys44 in paper numbering (UniProt Cys23-Cys45); paper numbering omits the initiator Met (offset +1: paper Pro8-Ile78 = UniProt 9-79); any initiator Met or tag remnant left out) GKGDPKKPRGKMSSYAFFVQTCREEHKKKHPDASVNFSEFSKKCSERWKTMSAKEKGKFEDMAKADKARYEREMKTYIPPKGETKKKF
4.81
